Measured pEC50 accompanies every entry in the list below.
- measurement target: DCN1 (Homo sapiens (Human))
- Sequence (Q96GG9 whole entry): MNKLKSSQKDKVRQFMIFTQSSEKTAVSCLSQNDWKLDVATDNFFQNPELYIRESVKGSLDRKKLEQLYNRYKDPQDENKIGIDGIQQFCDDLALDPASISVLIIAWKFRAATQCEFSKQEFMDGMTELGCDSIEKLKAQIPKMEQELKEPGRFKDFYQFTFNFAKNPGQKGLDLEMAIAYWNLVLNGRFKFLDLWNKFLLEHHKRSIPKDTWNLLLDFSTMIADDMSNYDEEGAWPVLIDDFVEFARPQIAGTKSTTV
- assay explanation: TR-FRET binding assay (biotin-DCN1 / Ac-UBE2M12-AlexaFluor488)
- study conditions: mean ± SD (n); read-out: DCN1_TRFRET Mean EC50
pEC50: −log10 of the molar value.

>  <compound>
CCN1C(=O)[C@@H](NC(=O)c2cccc(C(F)(F)F)c2)[C@@H](c2ccc(F)cc2)c2c(CNC(=O)CCOCCOCCOCCOCCNC(=O)CCCCC3SCC4NC(=O)NC43)nn(-c3ccccc3)c21 (stereo partly shown)

>  <censoring qualifier>
=

>  <pEC50>
6.99

$$$$
>  <compound>
CCN1C(=O)[C@@H](NC(=O)c2cccc(C(F)(F)F)c2)[C@@H](c2ccc(F)cc2)c2c(CN3CCC(F)(F)CC3)nn(-c3ccccc3)c21

>  <censoring qualifier>
=

>  <pEC50>
6.49

$$$$
>  <compound>
CCN1C(=O)[C@@H](NC(=O)c2ccc3c(ccn3C)c2)[C@@H](c2ccc(F)cc2)c2c(C)nn(-c3ccccc3)c21

>  <censoring qualifier>
=

>  <pEC50>
5.49

$$$$
>  <compound>
CCN1C(=O)[C@@H](NC(=O)c2cccc(C(F)(F)F)c2)[C@@H](c2ccc(F)cc2)c2c(CNS(C)(=O)=O)nn(-c3ccccc3)c21

>  <censoring qualifier>
=

>  <pEC50>
7.02

$$$$
>  <compound>
CCCN1C(=O)[C@@H](NC(=O)c2cccc(C)c2)[C@@H](c2ccc(F)cc2)c2c(C)nn(CCC)c21

>  <censoring qualifier>
=

>  <pEC50>
5.93

$$$$
>  <compound>
CCN1C(=O)[C@@H](NC(=O)c2cccc(C(F)(F)F)c2)[C@@H](c2ccc(F)cc2)c2c(C)nn(-c3cccc(C)c3)c21

>  <censoring qualifier>
=

>  <pEC50>
6.41

$$$$
>  <compound>
CC(=O)NCN1C(=O)[C@@H](NC(=O)c2cccc(C(F)(F)F)c2)[C@@H](c2ccc(F)cc2)c2c(C)nn(-c3ccccc3)c21

>  <censoring qualifier>
<

>  <pEC50>
4.44

$$$$
>  <compound>
CCN1C(=O)[C@@H](NC(=O)c2cccc(C(F)(F)F)n2)[C@@H](c2ccc(F)cc2)c2c(C)nn(-c3ccccc3)c21

>  <censoring qualifier>
=

>  <pEC50>
5.95

$$$$
>  <compound>
C=CCN1C(=O)[C@@H](NC(=O)c2cccc(C(F)(F)F)c2)[C@@H](c2ccc(F)cc2)c2c(C)nn(-c3ccccc3)c21

>  <censoring qualifier>
=

>  <pEC50>
5.81

$$$$
>  <compound>
Cc1cccc(C(=O)N[C@@H]2CNc3c(c(C)nn3-c3ccccc3)[C@@H]2c2ccc(F)cc2)c1

>  <censoring qualifier>
<

>  <pEC50>
4.44

$$$$
>  <compound>
CCCN1CCN2C(=O)[C@@H](NC(=O)c3cccc(C)c3)[C@@H](c3ccc(F)cc3)C(C(C)=O)=C12

>  <censoring qualifier>
=

>  <pEC50>
5.24

$$$$
>  <compound>
CCC(C)n1nc(C)c2c1N(CC)C(=O)[C@@H](NC(=O)c1cccc(C)c1)[C@H]2c1ccc(F)cc1 (stereo partly shown)

>  <censoring qualifier>
=

>  <pEC50>
6.08

$$$$
>  <compound>
CCN1C(=O)[C@@H](NC(=O)c2cccc(C(F)(F)F)c2)[C@@H](c2ccc(F)cc2)c2c(C)nn(-c3ccc(C)cc3)c21

>  <censoring qualifier>
=

>  <pEC50>
5.49

$$$$
>  <compound>
CCN1C(=O)[C@@H](NC(=O)c2ccc(F)c(C)c2)[C@@H](c2ccc(F)cc2)c2c(C)nn(-c3ccccc3)c21

>  <censoring qualifier>
=

>  <pEC50>
5.77

$$$$
>  <compound>
CCN1C(=O)[C@@H](NC(=O)c2cccc(C)c2)[C@@H](C(C)C)c2c(C)nn(-c3ccccc3)c21

>  <censoring qualifier>
=

>  <pEC50>
5.76

$$$$
>  <compound>
CCN1C(=O)[C@@H](NC(=O)c2cccc(C(F)(F)F)c2)[C@@H](c2ccc(F)cc2)c2c(CNCC(F)(F)F)nn(-c3ccccc3)c21

>  <censoring qualifier>
=

>  <pEC50>
6.79

$$$$
>  <compound>
CCN1C(=O)[C@@H](NC(=O)c2cccc(C)c2)[C@@H](c2ccc(F)cc2)c2c(C)nn(CC(F)(F)F)c21

>  <censoring qualifier>
=

>  <pEC50>
6.14

$$$$
>  <compound>
CCN1C(=O)[C@@H](NC(=O)c2cccc(C)c2)[C@@H](c2ccc(F)cc2)c2c(C)nn(-c3ccc(F)cc3)c21

>  <censoring qualifier>
=

>  <pEC50>
6.31

$$$$
>  <compound>
CCN1C(=O)[C@@H](NC(=O)c2cccc(C(F)(F)F)c2)[C@@H](c2ccc(C)s2)c2c(C)nn(-c3ccccc3)c21

>  <censoring qualifier>
=

>  <pEC50>
5.85

$$$$
>  <compound>
CCN1C(=O)[C@@H](NC(=O)c2cccc(C)c2)[C@@H](c2ccc(F)cc2)c2c(C)nn(C(C)C(F)(F)F)c21 (stereo partly shown)

>  <censoring qualifier>
=

>  <pEC50>
5.14

$$$$
>  <compound>
CCN1C(=O)[C@@H](NC(=O)c2cccc(C(F)(F)F)c2)[C@@H](c2ccc(F)cc2)c2c(CN3CCC(F)CC3)nn(-c3ccccc3)c21

>  <censoring qualifier>
=

>  <pEC50>
6.95

$$$$
>  <compound>
CC(=O)N1C(=O)[C@@H](NC(=O)c2cccc(C)c2)[C@@H](c2ccc(F)cc2)c2c(C)nn(-c3ccccc3)c21

>  <censoring qualifier>
=

>  <pEC50>
5.25

$$$$
>  <compound>
CCN1C(=O)[C@@H](NC(=O)c2cccc(C(F)(F)F)c2)[C@@H](c2ccc(F)c(OC)c2)c2c(C)nn(-c3ccccc3)c21

>  <censoring qualifier>
=

>  <pEC50>
5.90

$$$$
>  <compound>
CCN1C(=O)[C@@H](NC(=O)c2cccc(C(F)(F)F)c2)[C@@H](c2ccc(F)cc2)c2c(CNC)nn(-c3ccccc3)c21

>  <censoring qualifier>
=

>  <pEC50>
6.93

$$$$
>  <compound>
CCN1C(=O)[C@@H](NC(=O)c2cccc(C)c2)[C@@H](c2ccc(F)cc2)c2c(C)nn(CC)c21

>  <censoring qualifier>
=

>  <pEC50>
6.42

$$$$
